Assay System: Hypoxia-inducible factor 1-alpha (Homo sapiens, UniProt Q16665)
Sequence (Q16665 whole entry): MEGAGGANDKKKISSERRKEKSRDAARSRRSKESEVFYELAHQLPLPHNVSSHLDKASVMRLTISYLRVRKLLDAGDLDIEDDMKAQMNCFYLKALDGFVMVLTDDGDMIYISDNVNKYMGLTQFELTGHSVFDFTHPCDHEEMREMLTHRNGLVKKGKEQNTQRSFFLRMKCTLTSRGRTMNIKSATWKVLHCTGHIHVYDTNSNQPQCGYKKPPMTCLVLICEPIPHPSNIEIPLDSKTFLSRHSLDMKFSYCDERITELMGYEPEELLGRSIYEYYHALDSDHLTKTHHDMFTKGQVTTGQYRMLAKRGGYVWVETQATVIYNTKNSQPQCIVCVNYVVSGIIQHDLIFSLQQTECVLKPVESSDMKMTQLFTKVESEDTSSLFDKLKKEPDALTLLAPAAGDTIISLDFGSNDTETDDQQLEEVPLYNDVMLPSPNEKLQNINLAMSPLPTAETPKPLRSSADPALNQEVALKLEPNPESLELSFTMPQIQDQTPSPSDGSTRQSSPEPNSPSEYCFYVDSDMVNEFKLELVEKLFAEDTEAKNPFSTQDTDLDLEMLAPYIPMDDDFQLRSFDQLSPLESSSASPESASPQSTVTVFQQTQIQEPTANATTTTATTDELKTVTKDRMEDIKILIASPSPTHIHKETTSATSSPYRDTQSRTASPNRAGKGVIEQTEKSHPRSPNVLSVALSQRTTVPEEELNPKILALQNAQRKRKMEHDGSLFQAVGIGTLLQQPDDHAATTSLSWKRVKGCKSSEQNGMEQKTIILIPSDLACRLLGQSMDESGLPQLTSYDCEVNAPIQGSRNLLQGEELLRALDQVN
Method Summary: Inhibition of HIF-1alpha in human HCT116 cells incubated for 12 hrs under hypoxic conditions by Western blotting and HRE-luciferase reporter assay
Kindly state IC50 for each of the entries shown.
Answer with a number only, understood to be in µM.

Qu. Requested read-out: IC50. Entry: `C#CCOC(=O)c1ccc(O)c(NC(=O)COc2ccc(C34CC5CC(CC(C5)C3)C4)cc2)c1`
Ans. 4.3

Qu. Requested read-out: IC50. Entry: `COC(=O)c1ccc(O)c(NC(=O)COc2ccc(C34CC5CC(CC(C5)C3)C4)cc2)c1`
Ans. 4.4

Qu. Requested read-out: IC50. Entry: `C#CCOC(=O)c1ccc(O)c(NC(=O)COc2ccc(C34CC5CC(CC(C(=O)OCc6ccc(C7(C(F)(F)F)N=N7)cc6)(C5)C3)C4)cc2)c1`
Ans. 11.4

Qu. Requested read-out: IC50. Entry: `C#CCOC(=O)c1ccc(O)c(NC(=O)COc2ccc(C34CC5CC(CC(C5)C3)C4)cc2C2(C(F)(F)F)N=N2)c1`
Ans. 4.7

----------
Assay System: Malate dehydrogenase, mitochondrial (Homo sapiens)
Method Summary: Inhibition of MDH2 (unknown origin) pre-incubated for 1 hr followed by malate and NAD+ addition
Observable: IC50

Qu. Requested read-out: IC50. Entry: `C#CCOc1ccc(C(=O)c2cccc(NC(=O)COc3ccc(C45CC6CC(CC(C6)C4)C5)cc3)c2)cc1`
Ans. > 20 µM

Qu. Requested read-out: IC50. Entry: `C#CCOC(=O)c1ccc(O)c(NC(=O)COc2ccc(C34CC5CC(CC(C5)C3)C4)cc2)c1`
Ans. 7.1 µM

Qu. Requested read-out: IC50. Entry: `C#CCOC(=O)c1ccc(O)c(NC(=O)COc2ccc(C34CC5CC(CC(C(=O)OCc6ccc(C7(C(F)(F)F)N=N7)cc6)(C5)C3)C4)cc2)c1`
Ans. 10.2 µM

Qu. Requested read-out: IC50. Entry: `C#CCOC(=O)c1ccc(O)c(NC(=O)COc2ccccc2)c1`
Ans. > 20 µM

Qu. Requested read-out: IC50. Entry: `C#CCOC(=O)c1ccc(O)c(NC(=O)COc2ccccc2C2(C(F)(F)F)N=N2)c1`
Ans. > 20 µM

----------
Assay System: Malate dehydrogenase, mitochondrial (Homo sapiens) (UniProt P40926)
Sequence (whole entry): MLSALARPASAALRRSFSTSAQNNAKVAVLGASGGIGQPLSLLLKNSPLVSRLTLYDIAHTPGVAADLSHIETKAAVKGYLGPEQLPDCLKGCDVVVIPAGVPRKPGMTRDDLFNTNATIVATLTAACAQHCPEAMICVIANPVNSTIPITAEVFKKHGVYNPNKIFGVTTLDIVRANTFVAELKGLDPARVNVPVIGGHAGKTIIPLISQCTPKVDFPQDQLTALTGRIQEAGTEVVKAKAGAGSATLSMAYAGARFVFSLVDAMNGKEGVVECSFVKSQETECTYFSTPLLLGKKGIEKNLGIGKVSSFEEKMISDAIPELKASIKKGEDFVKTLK
Method Summary: Binding affinity to human recombinant MDH2 at 10 uM under UV irradiation by SDS-PAGE based photo-affinity labeling method
Active and inactive are the calls of the source. The rule behind the calls is not given here.
Your reply should match one of these outcome classes. true = active, false = inactive

Qu. Which outcome was assigned to `C#CCOC(=O)c1ccc(O)c(NC(=O)COc2ccccc2)c1` in this test?
Ans. false

Qu. Which outcome was assigned to `C#CCOC(=O)c1ccc(O)c(NC(=O)COc2ccc(C34CC5CC(CC(C5)C3)C4)cc2)c1` in this test?
Ans. false

Qu. Which outcome was assigned to `C#CCOC(=O)c1ccc(O)c(NC(=O)COc2ccc(C34CC5CC(CC(C5)C3)C4)cc2C2(C(F)(F)F)N=N2)c1` in this test?
Ans. true

Qu. Which outcome was assigned to `C#CCOc1ccc(C23CC4CC(CC(C(=O)OCc5ccc(C6(C(F)(F)F)N=N6)cc5)(C4)C2)C3)cc1` in this test?
Ans. false

Qu. Which outcome was assigned to `C#CCOC(=O)c1ccc(O)c(NC(=O)COc2ccccc2C2(C(F)(F)F)N=N2)c1` in this test?
Ans. false

Qu. Which outcome was assigned to `C#CCOC(=O)c1ccc(O)c(NC(=O)COc2ccc(C34CC5CC(CC(C(=O)OCc6ccc(C7(C(F)(F)F)N=N7)cc6)(C5)C3)C4)cc2)c1` in this test?
Ans. true
